Reference for the values: PubChem BioAssay AID1851

# system: Cytochrome P450 2D6 (Homo sapiens) (UniProt P10635)
# Sequence (P10635 whole entry, looked up): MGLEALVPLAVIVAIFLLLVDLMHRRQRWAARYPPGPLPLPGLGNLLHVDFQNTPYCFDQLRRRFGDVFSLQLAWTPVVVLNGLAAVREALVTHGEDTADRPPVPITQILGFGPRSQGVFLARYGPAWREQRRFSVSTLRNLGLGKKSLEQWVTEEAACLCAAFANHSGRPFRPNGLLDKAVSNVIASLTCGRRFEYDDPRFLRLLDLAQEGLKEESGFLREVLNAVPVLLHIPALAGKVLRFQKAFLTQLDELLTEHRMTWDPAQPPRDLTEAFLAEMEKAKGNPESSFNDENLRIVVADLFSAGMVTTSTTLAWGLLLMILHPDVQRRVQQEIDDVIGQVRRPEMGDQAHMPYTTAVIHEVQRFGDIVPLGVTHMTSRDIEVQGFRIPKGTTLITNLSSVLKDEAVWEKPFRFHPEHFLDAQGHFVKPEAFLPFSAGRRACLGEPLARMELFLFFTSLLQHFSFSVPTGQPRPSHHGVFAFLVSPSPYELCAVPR
# protocol.summary: Cytochrome panel assay with activity outcomes
# test.conditions: recombinant CYP, pro-luciferin dealkylation, luminescence, p450-cyp2d6; series mostly up to 57.1 µM
In all, about 16,000 compounds went through this assay and about 2,600 (16%) were called active. Another 20% or so got no clear call; they are omitted. Calls follow the shape of the dose curve; as a rule, active = well fitted curve in the direction sought with a large enough effect; inconclusive = small, poorly fitted or top-dose-only effect, or effect the other way; inactive = no such curve, though single readings can be large or run the other way. A selection follows.
# output must be one of active, inactive

Worked examples follow.
- Cc1oc(-c2cccs2)[n+]([O-])c1C: inactive
- Cn1nc(-c2ccccc2)c(C(=O)Nc2ccc(Cl)cc2)c1Cl: inactive
- COCCn1c(=O)c(-c2ccc(Cl)cc2)nc2cnc(Oc3ccccc3)nc21: inactive
- COc1ccc(C(=O)N/C(=C/c2cccs2)C(=O)NCCCn2ccnc2)cc1OC: inactive
- COc1ccc2c(Cl)c(C(=O)NCCCn3ccnc3)sc2c1Cl: active

Assay result, entry `S=C(S)NCCCn1ccnc1` — outcome?
active

Assay result, entry `CC(=O)N(/N=C1\Sc2ccccc2C1=O)c1ccccc1` — outcome?
inactive

Assay result, entry `CCOC(=O)C1CCN(C(=O)c2ccccc2NC(C)=O)CC1` — outcome?
inactive

Assay result, entry `CN(C)/C(CN1CCN(C=O)CC1)=C1\N=C(c2ccccc2)OC1=O` — outcome?
inactive

Assay result, entry `CC(=O)c1ccc(NC(=O)C2(c3ccccc3)CCOCC2)cc1` — outcome?
inactive

Assay result, entry `CSc1nncc(/C(C)=N\Nc2ccccc2)n1` — outcome?
inactive

Assay result, entry `O=C(NCc1cccnc1)c1sc2cc(Cl)ccc2c1Cl` — outcome?
inactive

* * *

# system: Cytochrome P450 2D6 (Homo sapiens) (UniProt P10635)
# protocol.summary: Cytochrome panel assay with activity outcomes; as to activity, negative = inhibition: % is scaled to controls: 0 for no effect and ±100 for the full control effect
# test.conditions: recombinant CYP, pro-luciferin dealkylation, luminescence, p450-cyp2d6; series mostly up to 57.1 µM
Screen size: about 16,000 compounds; about 2,600 (16%) were called active. Another 20% or so got no clear call; they are omitted. Not all results are given here. Square brackets hold non-standard residues; d marks the D form. Peptide text beside a SMILES is read from it.
observed.property: activity, negative = inhibition

Study these solved cases before continuing.
• NC(N)=N/N=C\c1ccc(O)c(C(=O)O)c1 = 13.4% [at 11.4 µM] (inactive)
• N[C@H](CO)C(=O)NCC(=O)O (H-[dS]-Gly-OH) = -2.94% [at 11.4 µM] (inactive)
• O=C(O)CSc1cc(-c2ccccc2)nc2ccccc12 = 3.96% [at 11.4 µM] (inactive)
• O=c1[nH]c(SCc2ccccc2[N+](=O)[O-])nc2nc[nH]c12 = -3.83% [at 11.4 µM] (inactive)
• CCOC(=O)N/N=C1/C[C@@H](O)[C@@H](O)[C@@H]2[C@@H]3C(=O)N(c4cccc(Oc5ccccc5)c4)C(=O)[C@H]3CC[C@H]12 = 2.57% [at 11.4 µM] (inactive)
• O=C(O)c1cccc(OCCO)c1 = 5.58% [at 11.4 µM] (inactive)
• COC(=O)c1cc(=O)[nH]c(=O)[nH]1 = -4.62% [at 11.4 µM] (inactive)
• Cc1cc(-c2cc(C)c(O)c(C(C)(C)C)c2)cc(C(C)(C)C)c1O = -4.06% [at 11.4 µM] (inactive)
• CC(C)=CCC/C(C)=C/CO/N=C1/C[C@@H](O)[C@@H](O)[C@@H]2[C@H]3C(=O)N(c4ccc(F)cc4F)C(=O)[C@@H]3CC[C@@H]12 = 8.95% [at 11.4 µM] (inactive)
• CC(=O)Nc1ccc(Cc2ccc3[nH]c(=O)cc(C)c3c2)cc1 = 2.4% [at 11.4 µM] (inactive)

Entry under review: `CO[C@@H]1COC(=O)C/C=C\[C@H](C)[C@H](OC)COC(=O)[C@H]2CCCN2C(=O)C/C=C\[C@H]1C` . Reported activity, negative = inhibition?
6.57% [at 11.4 µM] (inactive)

* * *

# system: Cytochrome P450 2D6 (Homo sapiens)
# protocol.summary: Cytochrome panel assay with activity outcomes
# test.conditions: recombinant CYP, pro-luciferin dealkylation, luminescence, p450-cyp2d6; series mostly up to 57.1 µM
About 2,600 (16%) of roughly 16,000 compounds were called active. Roughly 20% stayed inconclusive and do not appear here. These entries were drawn from the full list.
observed.property: AC50

* COc1ccc(C(Cl)=C(c2ccc(OC)cc2)c2ccc(OC)cc2)cc1 | inactive
* Cc1cc([N+](=O)[O-])ccc1NCc1ccccc1 | 15800 nM (active)
* CCCCOc1ccc(OC(=O)c2cccnc2)cc1 | inactive
* COc1ccc2c(c1)N(C[C@@H](C)CN(C)C)c1ccccc1S2 | 63.1 nM (active)
* CN[C@H](CC(=O)O)C(=O)O | inactive
* O=C(COc1ccc2ccccc2c1)NNC(=O)Cc1cccc2ccccc12 | inactive
* Cc1nnc(NC(=O)c2oc3c(ccc4ccccc43)c2C)s1 | inactive
* Cc1csc(NC(=O)CNS(=O)(=O)c2cccs2)n1 | inactive

Entry under review: `O=c1c(-c2cccs2)nc2cnc(N3CCNCC3)nc2n1Cc1cccs1` . Reported AC50?
inactive

Entry under review: `CCN(CC)CCOc1ccc(/C(=C(\Cl)c2ccccc2)c2ccccc2)cc1` . Reported AC50?
5010 nM (active)

Entry under review: `C/C(=N\NC(=O)c1ccc(Cl)cc1)c1ccc(Br)s1` . Reported AC50?
inactive

Entry under review: `Cn1c(=O)c(-c2cccc(Cl)c2)nc2cncnc21` . Reported AC50?
inactive

Entry under review: `CCC(=O)Nc1nnc(C(C)(C)C)s1` . Reported AC50?
inactive

Entry under review: `COCCNC(=O)c1cn(Cc2c(F)cccc2Cl)nn1` . Reported AC50?
inactive

Entry under review: `Cc1ccc(SCCNC(=O)c2ccccc2)cc1` . Reported AC50?
inactive

Entry under review: `COc1ccc(S(=O)(=O)Nc2cccc(Cl)c2)cc1OC` . Reported AC50?
inactive

Entry under review: `COc1ccc([C@@H]2Sc3ccccc3N(CCN(C)C)C(=O)[C@@H]2OC(C)=O)cc1` . Reported AC50?
inactive

Entry under review: `N#Cc1cccc(NC(=O)N2CC3(CCN(C(=O)c4ccco4)CC3)C2)c1` . Reported AC50?
inactive

Entry under review: `CC(=NCCN1CCN(C(=S)Nc2ccccc2)CC1)C1=C(O)CC(C)(C)CC1=O` . Reported AC50?
inactive

Entry under review: `O=S(=O)(Nc1ccc(Cc2ccncc2)cc1)c1cccs1` . Reported AC50?
355 nM (active)

Entry under review: `CCNS(=O)(=O)c1ccc(NS(C)(=O)=O)cc1` . Reported AC50?
inactive

* * *

Listed here: items and their measured activity, negative = inhibition.
# system: Cytochrome P450 2D6 (Homo sapiens)
# protocol.summary: Cytochrome panel assay with activity outcomes; as to activity, negative = inhibition: % is scaled to controls: 0 for no effect and ±100 for the full control effect
# test.conditions: recombinant CYP, pro-luciferin dealkylation, luminescence, p450-cyp2d6; series mostly up to 57.1 µM
About 2,600 (16%) of roughly 16,000 compounds were called active. About 20% were inconclusive and are not listed. A selection follows.

Study these solved cases before continuing.
• O=C(O)[C@H]1CCCC[C@@H]1C(=O)Nc1nc2ccccc2[nH]1 = -3.05% [at 11.4 µM] (inactive)
• C[N+](C)(N)Cc1csc(-c2ccc(Cl)cc2)n1 = -18.9% [at 11.4 µM] (inactive)
• C/C(CCN1CCc2nc(-c3ccccc3)c(-c3ccccc3)cc2C1)=N\OC[C@@H](C)[C@H](OCc1ccccc1)C(C)C = 13.5% [at 11.4 µM] (inactive)
• O=C(O)Cc1cccnc1 = 16.4% [at 11.4 µM] (inactive)

Which activity, negative = inhibition is reported with Cytochrome P450 2D6 (Homo sapiens) for this entry: `COc1ccc(/C=N\NC(=O)O)cc1` ?
12.1% [at 11.4 µM] (inactive)

Which activity, negative = inhibition is reported with Cytochrome P450 2D6 (Homo sapiens) for this entry: `OC[C@H](S)CS` ?
19.8% [at 11.4 µM] (inactive)

* * *

# system: Cytochrome P450 2D6 (Homo sapiens) (UniProt P10635)
# protocol.summary: Cytochrome panel assay with activity outcomes
# test.conditions: recombinant CYP, pro-luciferin dealkylation, luminescence, p450-cyp2d6; series mostly up to 57.1 µM
The campaign covered roughly 16,000 compounds. About 2,600 (16%) were called active. Roughly 20% stayed inconclusive and do not appear here. Not all results are given here.
observed.property: AC50

Study these solved cases before continuing.
* CCC[C@H]1C(=O)N2C(N(C)C)=Nc3ccc(C)cc3N2C1=O | inactive
* O=C(CN1CCCCC1)Nc1nnc(-c2ccc([N+](=O)[O-])cc2)s1 | inactive
* Cc1ccc(NC(=O)CC2CS(=O)(=O)CC2CC(=O)Nc2ccc(C)c(C)c2)cc1C (stereo not given) | inactive
* CCC(=O)Nc1cccc(NC(=O)c2cccc([N+](=O)[O-])c2)c1 | inactive

Turning now to a further record.
Entry under review: `CC1CCN(CC(=O)Nc2cccc([N+](=O)[O-])c2)CC1` . Reported AC50?
5.62 µM (active)
